# System: OVCAR-4 ovarian
# Experimental details: NCI-60 one-dose screen, 48 h
# Condition info: 10 µM unless noted
Compounds without any hit were thinned out: in the full panel of roughly 83,000, 20% have a hit. Active and inactive are the calls of the source. The calls were made as follows: active = growth percent below 10; inactive = the rest.
Reply using exactly one outcome from 1 (active), 0 (inactive)

Asked: Query: recorded result category for O=C(N=Nc1c(O)[nH]c2ccc(Cl)cc12)c1ccc2nc(-c3ccc(Cl)cc3)[nH]c2c1 in this test
Given back: 1

Asked: Query: recorded result category for NCCCCn1c(SCCc2c[nH]c3ccccc23)nnc1-c1ccc2ccccc2n1 in this test
Given back: 1

Asked: Query: recorded result category for COC(=O)c1c(C(=O)OC)c2ccc3c4ccccc4ccc3n2c1C(=O)C(C)Br (stereo not given) in this test
Given back: 0

Asked: Query: recorded result category for O=C(N/N=C/c1ccc(Cl)o1)c1[nH]c2ccc(Br)cc2c1-c1ccccc1 in this test
Given back: 1

Asked: Query: recorded result category for Cn1cc(-c2cc3nc(-c4cn(C)c5ncccc45)cc(N)n3n2)c2cc(F)ccc21 in this test
Given back: 0

---

# Tested on: SK-MEL-2 melanoma
# Experimental details: NCI-60 one-dose screen, 48 h (100 = growth as untreated, 0 = no growth, -100 = all killed)
# Condition info: 10 µM unless noted
Compounds without any hit were thinned out: in the full panel of roughly 83,000, 20% have a hit.
Hi there, I'd appreciate the recorded growth for every entry that follows.
Please reply with the bare figure in % and do not write the unit itself.

GET /value?item= COc1ccc(-c2cc(-c3cc(OC)c(OC)c(OC)c3)[nH]c(=O)c2C#N)cc1 &field=growth returns 97.8

GET /value?item= CCOC(=O)c1ccc(NC(=S)NC(=O)c2ccc(NC(=O)C(C)C)cc2OC)cc1 &field=growth returns 48.5

GET /value?item= COc1cncc(-c2ccc3ncnc(N4CCc5ccc(Cl)cc54)c3c2)c1 &field=growth returns 30.6

GET /value?item= O=C1Nc2cc(-c3ccc(NS(=O)(=O)c4ccc(-c5ccccc5)cc4)cc3)ccc2/C1=C/c1ccc[nH]1 &field=growth returns 83.1

GET /value?item= CCCCN1C(=O)/C(=C\C(=O)c2cc3ccccc3oc2=O)c2ccccc21 &field=growth returns 79.8

GET /value?item= O=C(N/N=C/c1c[nH]c2ccccc12)Nc1ccc(F)c(Cl)c1 &field=growth returns -9.22

GET /value?item= Oc1ccc(Cl)c(Nc2ncnc3c2cnn3CC(Cl)c2ccc(Br)cc2)c1 (centres undefined) &field=growth returns 84.8

GET /value?item= Nc1nnc(-c2cncc(Br)c2)c(-c2c[nH]c3ccc(Cl)cc23)n1 &field=growth returns 111

GET /value?item= C/C(=N/O)c1ccc(NC(=O)CSc2nnc(-c3ccc(-c4nc5ccc(Cl)cc5[nH]4)cc3)o2)cc1 &field=growth returns -26

---

# Tested on: NCI/ADR-RES ovarian
# Experimental details: NCI-60 one-dose screen, 48 h (100 = growth as untreated, 0 = no growth, -100 = all killed)
# Condition info: 10 µM unless noted
This is part of a sample that, as a whole, favours compounds with a hit. Of some 83,000 tested, about 20% had one in any assay.
Hi there, I'd appreciate the recorded growth for every entry that follows.
Please reply with the bare figure in % and do not write the unit itself.

Tested on NCI/ADR-RES ovarian: COc1ccc2c(c1)C(Sc1ccc(Br)cc1)c1c(nc(N)c(C#N)c1N)O2 (centres undefined) . Observed growth: 86.5

Tested on NCI/ADR-RES ovarian: O=C1Nc2ccccc2/C1=C\c1ccc(OCC(=O)c2ccc(Br)cc2)cc1 . Observed growth: 47.8

Tested on NCI/ADR-RES ovarian: CC(=O)Nc1ccc(S(=O)(=O)Nc2ccc(-c3ccc4c(c3)NC(=O)/C4=C\c3ccc[nH]3)cc2)cc1 . Observed growth: 107

Tested on NCI/ADR-RES ovarian: COc1cccc(/C=C/c2nc3ccccc3c(=O)n2CC(=O)Nc2ccccc2)c1 . Observed growth: 33

Tested on NCI/ADR-RES ovarian: Cc1ccc(C(=O)Nc2cccc(C(=O)NC(=S)Nc3ccc(S(N)(=O)=O)cc3)c2)cc1 . Observed growth: 84.8

Tested on NCI/ADR-RES ovarian: CC(C)(C)C(=O)C1CC(C#N)=C2C=Cc3c(ccc4ccccc34)N21 (centres undefined) . Observed growth: 81.9

Tested on NCI/ADR-RES ovarian: COc1ccc(NC(=O)Nc2nc3ccc([N+](=O)[O-])cc3s2)cc1 . Observed growth: -1.49

Tested on NCI/ADR-RES ovarian: CN1C(=O)C(O)(CC(=O)c2cc3ccccc3oc2=O)c2ccccc21 (centres undefined) . Observed growth: 98.7

Tested on NCI/ADR-RES ovarian: COc1cc(/C=N/NC(=O)c2ccc(OCc3nc4ccc(C)cc4[nH]3)cc2)cc(OC)c1OC . Observed growth: 91.6

Tested on NCI/ADR-RES ovarian: Clc1ccc2c(NCCNC34CC5CC(CC(C5)C3)C4)ccnc2c1 . Observed growth: -71.3

Tested on NCI/ADR-RES ovarian: CCOC(=O)/C(F)=C/C1CC1C1CCN(C(=O)OC(C)(C)C)CC1 (centres undefined) . Observed growth: 100

Tested on NCI/ADR-RES ovarian: COc1cc(-c2ccc3ncnc(N4CCc5ccc(Cl)cc54)c3c2)cnc1Cl . Observed growth: 26.6

Tested on NCI/ADR-RES ovarian: NS(=O)(=O)c1cccc(Nc2nc(SCC(=O)c3ccc(F)cc3)nc3ccccc23)c1 . Observed growth: 26.7

Tested on NCI/ADR-RES ovarian: COc1ccc(Nc2ncnc3sc4c(c23)CCN(Cc2ccccc2)C4)cc1 . Observed growth: 76.7

Tested on NCI/ADR-RES ovarian: COc1ccc2oc(=O)c(-c3csc(N/N=C(\C)c4cc(OC)c(OC)c(OC)c4)n3)cc2c1 . Observed growth: 77.9

Tested on NCI/ADR-RES ovarian: COc1ccc(-c2nc3ccccc3n2CC(=O)N=Nc2c(O)[nH]c3ccc(Br)cc23)cc1 . Observed growth: 78.9

Tested on NCI/ADR-RES ovarian: O=C(Nc1ccc(-c2ccc3c(c2)NC(=O)/C3=C\c2ccc[nH]2)cc1)Nc1ccc(Cl)c(Cl)c1 . Observed growth: 51.4

Tested on NCI/ADR-RES ovarian: CC(C)C[C@H](NC(=O)[C@@H]1CCCCCCCCCCC(=O)N[C@@H](CC(=O)N2CCC[C@@H]2C2CCCC2)C(=O)N1)B(O)O . Observed growth: 1.84

Tested on NCI/ADR-RES ovarian: COc1ccccc1/C=C/c1cccc(NC(=S)NCCCCN(C)C)c1 . Observed growth: -62.6
